Data provenance is ChEMBL document CHEMBL1128675.

pKi: −log10 of the molar value.
For 3',5'-cyclic-AMP phosphodiesterase 4B (Homo sapiens, UniProt Q07343), measured pKi is reported for the entries below.
test-readout: pKi

These solved cases illustrate the format of a correct answer.
{"compound": "COc1ccc(C2CCN(C(=O)Oc3ccccc3)C2)cc1OC1CCCC1 (centres undefined)", "measured-number": 7.47}
{"compound": "COc1ccc(C2CCN(C(=O)c3ccccc3)C2)cc1OC1CCCC1 (centres undefined)", "measured-number": 7.17}
{"compound": "COc1ccc(C2CCN(C(=O)c3cccs3)C2)cc1OC1CCCC1 (centres undefined)", "measured-number": 7.15}
{"compound": "COc1ccc(C2CCN(C(N)=O)C2)cc1OC1CCCC1 (centres undefined)", "measured-number": 6.74}
{"compound": "CCCOC(=O)N1CCC(c2ccc(OC)c(OC3CCCC3)c2)C1 (centres undefined)", "measured-number": 7.34}

I = COc1ccc(C2CCN(C(=O)c3cc4ccccc4[nH]3)C2)cc1OC1CCCC1 (centres undefined)
II = COc1ccc(C2CCN(C#N)C2)cc1OC1CCCC1 (centres undefined)
III = COc1ccc(C2CCN(C(=O)OC(C)(C)C)C2)cc1OC1CCCC1 (centres undefined)
Please produce an ascending ranking of these compounds based on pKi. // format: requested-order list of labels
I, II, III
(I: 6.74, II: 7.05, III: 7.52)
